target: Platelet-derived growth factor receptor beta (Homo sapiens, UniProt P09619); test: In vitro inhibition of Platelet derived growth factor receptor beta autophosphorylation in MG-63 cells without plasma; type: cell-based
Sequence (P09619 whole entry): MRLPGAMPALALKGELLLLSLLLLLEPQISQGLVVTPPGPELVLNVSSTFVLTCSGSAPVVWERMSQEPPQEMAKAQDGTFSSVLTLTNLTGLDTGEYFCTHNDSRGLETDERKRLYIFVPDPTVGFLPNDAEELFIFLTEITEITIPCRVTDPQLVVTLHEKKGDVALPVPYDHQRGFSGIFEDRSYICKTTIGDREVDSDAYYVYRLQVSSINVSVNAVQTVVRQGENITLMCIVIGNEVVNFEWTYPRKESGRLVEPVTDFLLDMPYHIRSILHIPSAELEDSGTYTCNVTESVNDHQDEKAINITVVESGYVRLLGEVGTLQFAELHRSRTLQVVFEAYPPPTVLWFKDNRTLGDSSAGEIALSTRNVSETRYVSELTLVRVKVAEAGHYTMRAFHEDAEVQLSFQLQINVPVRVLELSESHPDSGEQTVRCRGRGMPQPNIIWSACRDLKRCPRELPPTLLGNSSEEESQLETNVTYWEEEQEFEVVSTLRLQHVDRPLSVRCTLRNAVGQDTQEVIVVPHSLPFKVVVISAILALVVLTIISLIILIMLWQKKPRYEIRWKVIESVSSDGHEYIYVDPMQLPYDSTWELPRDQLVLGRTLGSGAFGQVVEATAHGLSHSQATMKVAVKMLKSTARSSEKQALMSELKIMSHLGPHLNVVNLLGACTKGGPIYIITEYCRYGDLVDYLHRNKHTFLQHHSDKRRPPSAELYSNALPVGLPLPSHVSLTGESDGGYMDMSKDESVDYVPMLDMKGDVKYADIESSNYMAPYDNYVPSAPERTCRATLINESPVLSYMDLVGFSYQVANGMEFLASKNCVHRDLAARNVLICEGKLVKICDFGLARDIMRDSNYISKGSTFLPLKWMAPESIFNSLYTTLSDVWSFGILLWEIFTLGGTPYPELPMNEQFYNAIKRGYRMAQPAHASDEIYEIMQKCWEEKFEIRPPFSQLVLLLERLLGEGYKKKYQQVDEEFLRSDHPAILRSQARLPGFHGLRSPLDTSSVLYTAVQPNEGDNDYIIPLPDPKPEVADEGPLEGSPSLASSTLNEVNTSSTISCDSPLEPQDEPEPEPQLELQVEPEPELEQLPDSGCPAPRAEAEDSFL
Measure Name: IC50 (nM)
Report only the number, with the unit nM understood.

COc1cc2c(N3CCN(C(=S)Nc4ccncc4)CC3)c(C#N)cnc2cc1OCCCN1CCCCC1 | 240

State IC50 (Platelet-derived growth factor receptor beta (Homo sapiens, UniProt P09619)) of COc1cc2c(N3CCN(C(=S)Nc4ccncc4)CC3)ncnc2cc1OCCCN1CCCCC1 .
220

Give reported IC50 for COc1cc2c(N3CCN(/C(S)=N\c4ccc(C(F)(F)F)nc4)CC3)ncnc2cc1OCCN1CCCCC1 (Platelet-derived growth factor receptor beta (Homo sapiens, UniProt P09619))
4100

Provide Platelet-derived growth factor receptor beta (Homo sapiens, UniProt P09619) IC50 reading for COc1cc2c(N3CCN(C(=S)NCc4ccc(-c5ccccn5)cc4)CC3)ncnc2cc1OCCN1CCCCC1 .
2130

Output reported IC50 of the compound COc1cc2c(N3CCN(/C(S)=N\c4ccncc4)CC3)ncnc2cc1OCCN1CCCCC1 on Platelet-derived growth factor receptor beta (Homo sapiens, UniProt P09619).
240

Enter measured IC50, system Platelet-derived growth factor receptor beta (Homo sapiens, UniProt P09619), for the compound shown: COc1cc2c(N3CCN(/C(S)=N\Cc4ccc(C)nc4)CC3)ncnc2cc1OCCCN1CCCCC1
140

GET IC50 where system = Platelet-derived growth factor receptor beta (Homo sapiens, UniProt P09619) and item = COc1cc2c(N3CCN(C(=S)NCc4ccncc4)CC3)ncnc2cc1OCCN1CCCCC1
12100

Answer with IC50 of COc1cc2c(N3CCN(C(=S)NCc4ccc(-c5cccnc5)cc4)CC3)ncnc2cc1OCCN1CCCCC1 measured for Platelet-derived growth factor receptor beta (Homo sapiens, UniProt P09619).
14800

Provide Platelet-derived growth factor receptor beta (Homo sapiens, UniProt P09619) IC50 reading for COc1cc2c(N3CCN(/C(S)=N\Cc4ccc5c(c4)OCO5)CC3)ncnc2cc1OCCN1CCOCC1 .
100

Consider the compound COc1cc2c(N3CCN(C(=S)NCc4cnc(C)cn4)CC3)ncnc2cc1OCCN1CCCCC1 tested on Platelet-derived growth factor receptor beta (Homo sapiens, UniProt P09619); state its IC50.
50

Enter recorded IC50 with Platelet-derived growth factor receptor beta (Homo sapiens, UniProt P09619) for COc1cc2c(N3CCN(C(=S)NCc4cnc(C)cn4)CC3)ncnc2cc1OCCN1CCOCC1 here.
1360

# lookup: Platelet-derived growth factor receptor beta (Homo sapiens, UniProt P09619) IC50, key = COc1cc2c(N3CCN(/C(S)=N\c4ccc(Cl)nn4)CC3)ncnc2cc1OCCN1CCCCC1
420

Determine reported IC50 for COc1cc2c(N3CCN(C(=S)NCc4csc(C)n4)CC3)ncnc2cc1OCCCN1CCCCC1 ; test system: Platelet-derived growth factor receptor beta (Homo sapiens, UniProt P09619).
630

Please look at COc1cc2c(N3CCN(C(=S)NCc4ccc(Cl)nc4)CC3)ncnc2cc1OCCN1CCCCC1 and tell me its recorded IC50 on Platelet-derived growth factor receptor beta (Homo sapiens, UniProt P09619).
1010

Enter recorded IC50 with Platelet-derived growth factor receptor beta (Homo sapiens, UniProt P09619) for COc1cc2c(N3CCN(C(=S)NCc4ccc(C)nc4Cl)CC3)ncnc2cc1OCCN1CCCCC1 here.
1150

Return reported IC50 for target or system Platelet-derived growth factor receptor beta (Homo sapiens, UniProt P09619), item COc1cc2c(N3CCN(C(=S)Nc4ccc(-c5ccccc5)cn4)CC3)ncnc2cc1OCCCN1CCCCC1 .
1980

# lookup: Platelet-derived growth factor receptor beta (Homo sapiens, UniProt P09619) IC50, key = COc1cc2c(N3CCN(C(=S)NCc4csc(-c5ccc(C(F)(F)F)cc5)n4)CC3)ncnc2cc1OCCCN1CCCCC1
3090

Write down measured IC50 (Platelet-derived growth factor receptor beta (Homo sapiens, UniProt P09619)) for this compound. COc1cc2c(N3CCN(C(=S)Nc4ccc(-c5ccccc5)nc4)CC3)ncnc2cc1OCCCN1CCCCC1
360
